Values from paper PMC8811894

Test system: T-47D human breast carcinoma cells
Assay: MTT cell toxicity assay
Assay type: cell-based
Conditions: Homo sapiens, T47D, 72 h, read-out: cancer cell growth inhibition, GI50
Listing of entries alongside the reported GI50.
Only the number, expressed in nM, is required.

Some entries whose results are on file:
COc1cc(CCC[P+](c2ccccc2)(c2ccccc2)c2ccccc2)c(OC)c2c1OCO2.[I-] [7a] : 89
C=CCc1cc(OC)c2c(c1OC)OCO2 [1a, Apiol] : 70700
COc1cc(COC(=O)CCCCC[P+](c2ccccc2)(c2ccccc2)c2ccccc2)c(OC)c2c1OCO2.[Br-] [compound 16] : 430

Request: Give recorded GI50. COc1c(CCC[P+](c2ccccc2)(c2ccccc2)c2ccccc2)cc2c(c1OC)OCO2.[I-] [7b]
Response: 107

Request: Give a short answer stating reported GI50 for COc1cc(OCCCCCC[P+](c2ccccc2)(c2ccccc2)c2ccccc2)c(OC)c2c1OCO2.[Br-] [compound 11] .
Response: 421

Request: Recall and state the measured GI50 for COc1cc(CNC(=O)CCCCC[P+](c2ccccc2)(c2ccccc2)c2ccccc2)c(OC)c2c1OCO2.[Br-] [compound 17] .
Response: 256
